Test system: NCI-H322M lung
Experiment: NCI-60 one-dose screen, 48 h (100 = growth as untreated, 0 = no growth, -100 = all killed)
Conditions: 10 µM unless noted
This is part of a sample that, as a whole, favours compounds with a hit. Of some 83,000 tested, about 20% had one in any assay.
observable: growth (%)
Just the number please, in %, no unit attached.

Request: Please indicate growth recorded for "Nn1c(SCC(=O)Nc2ccc(Cl)cc2)nnc1-c1cc(F)c(Cl)cc1Cl"
Response: 80.2

Request: Please indicate growth recorded for "COc1ccc(N(C)c2nc(Cl)nc3ccn(C)c23)cc1"
Response: 49

Request: Please indicate growth recorded for "CN(C)CSc1nc2ccccc2s1"
Response: 94.8

Request: Please indicate growth recorded for "Cc1nccc2c3ccc(OCc4cn(-c5ccccc5)nn4)cc3n(CCCc3ccccc3)c12"
Response: 75.6

Request: Please indicate growth recorded for "O=C(Nc1nccs1)c1noc2ccccc12"
Response: 92

Further cases:
Request: Please indicate growth recorded for "CCC1=C[C@H]2CN(CCc3c([nH]c4ccccc34)[C@@](C(=O)OC)(c3cc4c(cc3OC)N(C)[C@H]3[C@@](O)(C(=O)OC)[C@H](OC(C)=O)[C@]5(CC)[C@@H]6C[C@@H]6CN6CC[C@]43[C@@H]65)C2)C1"
Response: 66.1

Request: Please indicate growth recorded for "CCN1CCN(c2ccc(NC(=O)Nc3nc4ccc(-c5ccccc5OC)cc4s3)cc2)CC1"
Response: -86

Request: Please indicate growth recorded for "COc1ccc(-n2nc(C(=O)NCC(=O)O)nc2-c2ccccc2)cc1"
Response: 98.1

Request: Please indicate growth recorded for "C=CCn1c(SCC(=O)Nc2ccc(C(=O)/C=C/c3cc(OC)c(OC)c(OC)c3)cc2)nnc1-c1ccccc1"
Response: 104

Request: Please indicate growth recorded for "S=C(Nc1ccc(Cl)cc1)c1ccccn1"
Response: 97.2

Request: Please indicate growth recorded for COc1c(O)cc2oc3cc(O[C@@H]4OC(C)[C@@H](O)[C@H](O)C4O)c(CC=C(C)C)c(O)c3c(=O)c2c1CC=C(C)C (some centres undefined)
Response: 107

Request: Please indicate growth recorded for "Nc1c(C(=O)Nc2cccc3ccccc23)sc2nc3c(cc12)CCCCC3"
Response: 51.3

Request: Please indicate growth recorded for "COCCc1n(Cc2ccc3ccccc3c2)c2ccccc2[n+]1Cc1ccc2ccccc2c1"
Response: 5.25

Request: Please indicate growth recorded for "CCOCc1nc2ccccc2c(=O)[nH]1"
Response: 100

Request: Please indicate growth recorded for "CCO/C=N/S(=O)(=O)c1cc2c(cc1Cl)NC=NS2(=O)=O"
Response: 111

Request: Please indicate growth recorded for "Cc1cc(C)n(-c2nc(-c3cccs3)c(C#N)c(=O)[nH]2)n1"
Response: 92.1

Request: Please indicate growth recorded for "C=C1C(=O)O[C@H]2[C@H]1CC/C(COC(=O)CCCCCCC(=O)OC/C1=C/CC[C@@]3(C)O[C@H]3[C@H]3OC(=O)C(=C)[C@@H]3CC1)=C\CC[C@@]1(C)O[C@@H]21"
Response: 99.5

Request: Please indicate growth recorded for "Cc1cnc(SCc2ccc(Cl)cc2Cl)nc1Nc1ccc(Cl)c(Cl)c1"
Response: 82

Request: Please indicate growth recorded for "CC[C@]12C=CCN3CC[C@@]4(c5ccc(OC)cc5N(C)[C@H]4[C@@](O)(C(=O)OC)[C@@H]1OC(=O)CCC(=O)O[C@H]1CC[C@H]4[C@@H]5CC[C@H]6CC(=O)CC[C@]6(C)[C@H]5CC[C@]14C)[C@@H]32"
Response: 68.3

Request: Please indicate growth recorded for C1=CC2=CC=C3C=CC=C4C(c5nc6c7ccccc7c7ccccc7c6[nH]5)=CC(=C1)C2C34 (centres undefined)
Response: 90.9

Request: Please indicate growth recorded for "CC(C)(C)c1ccc2oc(=O)n(SC(Cl)(Cl)Cl)c2c1"
Response: 106

Request: Please indicate growth recorded for "O=C(Nc1nc(-c2ccccc2Cl)cs1)c1cc(-c2ccc(Br)cc2)nc2ccccc12"
Response: 70.4

---

Tested on: MOLT-4 leukemia
Experiment: NCI-60 one-dose screen, 48 h (100 = growth as untreated, 0 = no growth, -100 = all killed)
Conditions: 10 µM unless noted
Compounds without any hit were thinned out: in the full panel of roughly 83,000, 20% have a hit.
MET if growth is below 40%. NOT MET if not; exact matches included in NOT MET.

Known results for compounds:
Request: Below 40% on growth? Entry "CCc1ccc(OCc2ccccc2C(=O)Nc2ccc3nc(C)cc(N)c3c2)cc1"
Response: MET

Request: Below 40% on growth? Entry "Cc1nc(C)c(C)nc1C"
Response: NOT MET

Request: Below 40% on growth? Entry "S=c1ssnc1-c1cc2ccccc2o1"
Response: NOT MET

Request: Below 40% on growth? Entry "CN(C)C1=NCCN1"
Response: NOT MET

Further cases:
Request: Below 40% on growth? Entry "NCCCn1c2c(c3cc(-c4ccn[nH]4)ccc3c1=O)C(=O)c1ccccc1-2"
Response: MET

Request: Below 40% on growth? Entry "CCC[S@@](=O)c1ccc2nc(NC(=O)OC)[nH]c2c1"
Response: NOT MET

Request: Below 40% on growth? Entry "O=C1C(Cl)=C(NCCCN(CCCNC2=C(Cl)C(=O)c3ccccc3C2=O)C2=C(Cl)C(=O)c3ccccc3C2=O)C(=O)c2ccccc21"
Response: MET

Request: Below 40% on growth? Entry "COc1cc(C)ccc1Oc1nc(Nc2ccc(N3CCOCC3)cc2)ncc1N=Cc1cc(C(F)(F)F)cc(C(F)(F)F)c1"
Response: NOT MET

---

Parameter: growth. Scope: all listed entries.
System: SK-MEL-28 melanoma
Assay: NCI-60 one-dose screen, 48 h (100 = growth as untreated, 0 = no growth, -100 = all killed)
Conditions: 10 µM unless noted
Compounds without any hit were thinned out: in the full panel of roughly 83,000, 20% have a hit.
Just the number please, in %, no unit attached.

Use these answered entries as a reference point.
Request: Please indicate growth recorded for "COc1ccc(Sc2[nH]c(C(C)=O)c3ccccc23)cc1"
Response: 84.1

Request: Please indicate growth recorded for "COc1ccc(-n2cc(COc3ccc4c5ccnc(C)c5n(CC(C)C)c4c3)nn2)cc1"
Response: 87.4

Request: Please indicate growth recorded for "CN(C)c1ccc(-c2ccc3[nH]c(=O)nc(-c4ccc(F)cc4)c3c2)cn1"
Response: 69.2

Request: Please indicate growth recorded for "N#Cc1c(-c2ccc(F)cc2)nc(N/N=C/c2cccc(O)c2)nc1N1CCOCC1"
Response: 99

Request: Please indicate growth recorded for "O=c1[nH]c(-c2cccc(F)c2)cc2cc(F)ccc12"
Response: 61.7

Further cases:
Request: Please indicate growth recorded for "COc1ccc(-c2nnc(N3CCN(C(=O)CN4CCN(c5ccc(OC)cc5)CC4)CC3)nc2-c2ccc(OC)cc2)cc1"
Response: -84.1

Request: Please indicate growth recorded for Cc1nc2sc(C(=O)Nc3ccccc3)c(N)c2cc1C(C)O (stereo unspecified)
Response: 55.8

Request: Please indicate growth recorded for "COc1ccc(/C=C/C(=O)Nc2ncnc3nc[nH]c23)cc1"
Response: 99.4

Request: Please indicate growth recorded for "COc1cc(C(=O)Nc2cc(O)c(C/C=C(\C)CCC=C(C)C)c(O)c2)cc2c1O[C@]1(C)CC[C@@H](O)C(C)(C)[C@H]1C2"
Response: 25.8

Request: Please indicate growth recorded for "COc1cc2cc(c1Cl)N(C)C(=O)C[C@H](OC(=O)[C@H](C)N(C)C(=O)CCS)C[C@]1(C)O[C@H]1[C@H](C)[C@@H]1C[C@@](O)(NC(=O)O1)[C@H](OC)/C=C/C=C(\C)C2"
Response: 57.2

Request: Please indicate growth recorded for "Cc1cc(C)cc(Nc2nccc(-c3c(-c4ccc(F)cc4)ncn3C3CCNCC3)n2)c1"
Response: -34.7

Request: Please indicate growth recorded for "COc1cc2nc3c(=O)n(CCN(C)C)cnn3c(=O)c2cc1OC"
Response: 102

Request: Please indicate growth recorded for "C#C[C@@]1(O)[C@@H](CO)O[C@@H](n2cc(Br)c3c(N)ncnc32)[C@@H]1O"
Response: 58.2

---

Parameter: growth. Scope: all listed entries.
Test system: MALME-3M melanoma
Assay: NCI-60 one-dose screen, 48 h (100 = growth as untreated, 0 = no growth, -100 = all killed)
Conditions: 10 µM unless noted
About 83,000 compounds went through this panel and 20% of them were active in at least one assay; those are over-represented in the sample as a whole.
Just the number please, in %, no unit attached.

Request: Please indicate growth recorded for "Nn1c(SCC(=O)Nc2ccc(Cl)cc2)nnc1-c1cc(F)c(Cl)cc1Cl"
Response: 92.6

Request: Please indicate growth recorded for CC(=O)Nc1c(C(=O)Nc2ccccc2)sc2nc3c(cc12)C(OC(C)=O)CCC3 (stereo not drawn)
Response: 89.7

Request: Please indicate growth recorded for "COc1ccc(-n2nc(C(=O)NCC(=O)O)nc2-c2ccccc2)cc1"
Response: 92.4
